Target: human α-Synuclein pre-formed fibrils (human, UniProt P37840 1-140)
Assay: sandwich ELISA; PFF vs monomer from EC50s, Syn211 as control
For each of the binders below, state its PFF Preference.
Number only, no unit.

// returns reported PFF Preference for input 9018 (antibody, IgG2b, V domains shown) VH: EVMLVESGGGLVKPGGSLKLSCAASGFTFSSYAMSWVRQTPEKRLEWVATISTGGGYTYYPDSVKGRFTVSRDNAKNTLYLQMSSLRSEDTAMYYCARRGTSRGYFDVWGAGTTVTVSS VL: QIILTQSPAIMSASPGEKVTMTCSASSSVSYMYWYQQKPESSPRLLIYDTSNLASGVPVRFSGSGSGTSYFLTISRMEAEDAATYYCQQWKTYPPTFGGGTRLEIK
1.45

// returns reported PFF Preference for input 9096 (antibody, IgG2b, V domains shown) VH: EVQLVESGGGLVKPGGSLKLSCAASGFTFSGYAMSWVRQTPEKRLEWVATISNGGSYTYYPDSVKGRFTISRDNAKKTLYLQMSSLRSEDTAMYYCTRRAATRGYFDYWGQGTTLTVSS VL: QIVLTQSPAIMSASPGEKVTMTCSASSSVSYMYWYQQKPGSSPRLLIYDTSKLASGVPVRFSGSGSGTSYSLTISRMEAEDAATYYCQQWRSYPPTFGAGTKLELK
1.01

// returns reported PFF Preference for input 9035 (antibody, IgG2b, V domains shown) VH: EVQLVESGGGLVKPGGSLKLSCGASGFTFSSFAMSWVRQTPEKRLEWVATISNGGSYTYYPDSVQGRFTISRDNAKNTLYLRMSSLRSEDTAMYYCARRSSTRGFFDYWGHGTTLTVSS VL: QIFLTQSPAIMSASPGEKVTMTCSASSSVSYMYWYQQKPGSSPRLLIYDSSKLASGVPVQFSGSGSGTSYSLTISRMEAEDAATYYCQQWRSYPPTFGAGTKLELK
2.11e+08

// returns reported PFF Preference for input 9099 (antibody, IgG2b, V domains shown) VH: EVQLVESGGVLVKPGGSLKLSCAASGFTFSSFAMSWVRQTPEKRLEWVATISNGGSYTYYPDSVKGRFTISRDNAKNTLYLRMSSLRSEDTAMYYCVRRATTRGYFDYWGQGTTLTVSS VL: QIFLTQSPAIMSASPGEKVTMTCSASSSVSYMYWYQQKPGSSPRLLIYDSSKLASGVPVQFSGSGSGTSYSLTISRMEAEDAATYYCQQWRSYPPTFGAGTKLELK
5.26

// returns reported PFF Preference for input 9100 (antibody, IgG2b, V domains shown) VH: EVQLVESGGVLVKPGGSLKLSCAASGFTFSSFAMSWVRQTPEKRLEWVATISNGGSYTYYPDSVKGRFTISRDNAKNTLYLRMSSLRSEDTAMYYCVRRATTRGYFDYWGQGTTLTVSS VL: QIFLTQSPAIMSASPGEKVTMTCSASSSVSYMYWYQQKPGSSPRLLIYDSSKLASGVPVQFSGSGSGTSYSLTISRMEAEDAATYYCQQWRSYPPTFGAGTKLELK
2.73

// returns reported PFF Preference for input 9004 (antibody, IgG2b, V domains shown) VH: EVHLVESGGGLVQPKGSLKLSCAASGFTFNTYAMHWVRQAPGKGLEWVARIRSKSNNYATYYADSVKDRFTISRDDSQSMLYLQMNNLKTEDTAMYYCVRGGLSPFDYWGQGTTLTVSS VL: QIVLTQSPAIMSASPGEKVTMTCSASSSVTYMHWYQQKSGTSPKRWIYDTSKLASGVPARFSGSGSGTSYSLTISSMEAEDAATYYCQQWSSNPPTFGGGTKLEIR
1.02

// returns reported PFF Preference for input 9009 (antibody, IgG1, V domains shown) VH: EVQLVESGGGLVQPKGSLKLSCAASGFTFNTYAMHWVRQAPGKGLEWVARIRSESNNFATYYADSVKDSFTISRDDSQSMLYLQMNNLKTEDTAVYYCVRGGLSPFDYWGQGTTLTVSS VL: QIVLTQSPAIMSASPGEKVTMTCSASSSVSYMHWYQQKSGTSPKRWIYDTSKLASGVPARFSGSGSGTSYSLTINSMEAEDAATYYCQQWSRNPPTFGGGTKLEIK
0.507

// returns reported PFF Preference for input 9052 (antibody, IgG2b, V domains shown) VH: EVQLVESGGVLVKPGGSLKLSCAASGFTFSSFAMSWVRQTPEKRLEWVATISNGGSYTYYPDSVKGRFTISRDNAKNTLYLRMSSLRSEDTAMYYCVRRATTRGYFDYWGQGTTLTVSS VL: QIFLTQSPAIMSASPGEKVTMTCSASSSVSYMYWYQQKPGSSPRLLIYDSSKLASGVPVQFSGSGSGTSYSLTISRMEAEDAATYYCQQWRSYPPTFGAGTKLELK
1.47

// returns reported PFF Preference for input 9021 (antibody, IgG1, V domains shown) VH: EVMMVESGGGLVKPGGSLKLSCAASGFTFSNYAMSWVRQTPEKRLEWVATISTGGGYTYYPDSMKGRFTISRDNAKNTLYLQMSSLRSEDTAMYYCARRGTARGYFDVWGAGTTVTVSS VL: QIVLTQSPAIMSASPGEKVTMTCSASSSVSYMYWYQQKPESSPRLLIYDTSNLASGVPVRFSGSGSGTSYFLTISRMEAEDAATYYCQQWKTYPPTFGGGTKLEIK
1

// returns reported PFF Preference for input 9064 (antibody, IgG1, V domains shown) VH: EVHLVESGGGLVQPKGSLKLSCAASGFTFNTYAMHWVRQAPGKGLEWVARIRNKSNNYATYYADSVKDRFTISRDDSQSMLFLQMDNLKTEDTAIYYCVRGGLSPFDYWGQGTTLTVSS VL: QIVLTQSPAIMSASPGEKVTMTCSASSSVTYMHWYQQKSGTSPKRWIYDTSKLASGVPARFSGSGSGTSYSLTISSMEAEDAATYYCQQWSSNPPTFGGGTKLEIR
0.855
